Experiment: chemical genetic growth profiling, strain panel (AID 1159580);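 further: tested at 20 µM; growth read once vehicle control cultures reached saturation at 30 °C; 1 = growth at the plate median or of vehicle wells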
Conditions: S. cerevisiae deletion strains, growth OD, locus YDR101C, strain arx1
Among all 5,500 compounds or so, about 2,000 (36%) were called active. About 18% were inconclusive and are not listed. No stated cut-off is given here; in the data, active means normalized growth mostly below about 0.91 (no sharp cut-off); inconclusive means no clear call, values can overlap the other calls; inactive means mostly above about 0.92. The list shows a part of the results.
Hi there, use one of these labels in your reply, thanks! true (1) for active, false (0) for inactive

Use these answered entries as a reference point.
compound	class
CC(C)Nc1nc(Cl)nc(NC(C)C)n1	false (0)
CCOC(=O)CC(SP(=S)(OC)OC)C(=O)OCC (stereo not drawn)	false (0)
COc1cc(O)c2c(=O)cc(-c3ccc(O)cc3)oc2c1	false (0)

-- ask So what was the verdict on CC1(C)S[C@@H]2C(N3C(=O)[C@@H](c4ccccc4)NC3(C)C)C(=O)N2[C@H]1C(=O)O (stereo partly drawn) in this test?
-- reply false (0)

-- ask Call for entry `COc1ccccc1N1CCN(CCCNc2cc(=O)n(C)c(=O)n2C)CC1` :
-- reply false (0)

-- ask Given CSCCC(N)C(=O)NC(CC(C)C)C(=O)NC(Cc1ccccc1)C(=O)O (stereo not drawn) , state the outcome it received in this test.
-- reply false (0)

-- ask Name the outcome recorded for CC1(C)Oc2ccc3ccc(=O)oc3c2CC1O (stereo not drawn) in the assay.
-- reply false (0)

----------
Listing: normalized growth of selected compounds
Assay: chemical genetic growth profiling, strain panel (AID 1159580)
Conditions: S. cerevisiae deletion strains, growth OD, locus YNL322C, strain KRE1, hits give low values
The whole screen tested about 5,500 compounds, of which about 2,000 (36%) were called active. Inconclusive results (about 18%) are left out. This is one part of the list.
Lab note: jot the number down without any unit.

Check out these entries, answers already filled in.
compound	normalized growth
CC(=O)O[C@@H]1CC2C(C)(C)CCC[C@]2(C)C2CC[C@]3(C)C(=CC(=O)O[C@H]3c3ccoc3)[C@@]21C (stereo not given in full)	1.02
CCC1(O)C(=O)OCc2c1cc1n(c2=O)Cc2cc3ccccc3nc2-1 (stereo not given)	0.971
CCSc1ncccc1C(=O)N[C@@H](CCSC)C(=O)OC	1.01
NC(=O)c1ccccc1O	0.998

API: the following record is the query input.
-- ask Bench note: what normalized growth did `N#CCCN1C(=O)C2(OCCO2)c2ccccc21` show?
-- reply 0.997

----------
Assay: chemical genetic growth profiling, strain panel (AID 1159580)
Conditions: S. cerevisiae deletion strains, growth OD, locus YPR111W, strain DBF20, hits give low values
Among all 5,500 compounds or so, about 2,000 (36%) were called active. Roughly 18% stayed inconclusive and do not appear here. The list shows a part of the results.
reported-property: normalized growth
I only need the number, thanks.

Example entries begin here.
compound	normalized growth
O=C(O/N=C1/CCCc2[nH]c3ccccc3c21)c1ccc(Cl)cc1Cl	0.972
COc1ccc(N=C2SCC(c3ccc(C)cc3)=NN2CCO)cc1	0.968
CC1(C)C=Cc2cc(/C(N)=N\OC(=O)Nc3cccc(C(F)(F)F)c3)ccc2O1	0.963
O=C(O/N=C1/CCCc2[nH]c3ccccc3c21)C1CCCCC1	0.969
Cc1ccc(OS(=O)(=O)c2c(Cl)sc(Cl)c2Br)c([N+](=O)[O-])n1	0.948

-- ask Please give the measured normalized growth for this compound: `O=C1OC(c2ccccc2)=C/C1=C/c1ccccc1`
-- reply 0.964

-- ask Suppose we examine the compound COc1ccccc1N1CCN(C(=O)C(C)c2ccc(CC(C)C)cc2)CC1 (stereo not given) ; what normalized growth value has been reported?
-- reply 0.95

-- ask What does the record list as normalized growth for `N#C/C(N=Cc1cc(Cl)cc(Cl)c1O)=C(\C#N)N=Cc1cc(Cl)cc(Cl)c1O` ?
-- reply 0.927

-- ask What normalized growth value was documented for this compound, `O=C(Nc1cc2ccccc2s1)N1CCN(Cc2c(F)cccc2Cl)CC1` ?
-- reply 0.962

-- ask Can you look up the measured normalized growth of `Cc1cc(Br)c(O)c(/C=N\NC(=S)NC(C)(C)C)c1` for me?
-- reply 0.985

-- ask Entry `CCCCCCCCCCCCSc1ncn[nH]1` has what normalized growth?
-- reply 0.973

-- ask Can you share its normalized growth? I mean this compound: OC(COCc1ccccc1)Cn1c2ccccc2c2ccccc21 (stereo not given)
-- reply 0.933

-- ask Dear colleague, I am looking for the recorded normalized growth of the following compound: `O=c1[nH][nH]c(=O)n1CCCc1cc2cccc3ccc4cccc1c4c32`
-- reply 0.973

-- ask I would be grateful if you could share the reported normalized growth for `CCOC(=O)NC(=S)Nc1ccc(C(C)(C)C)cc1NC(=S)NC(=O)OCC` .
-- reply 0.978

-- ask Need normalized growth of `CC(C)(C)NC(=S)N/N=C\c1cc(Br)c(O)c(Br)c1` , thanks.
-- reply 0.955

----------
Test: chemical genetic growth profiling, strain panel (AID 1159580)
Conditions: S. cerevisiae deletion strains, growth OD, locus YNL250W, strain rad50, hits give low values
Screen size: about 5,500 compounds; about 2,000 (36%) were called active. Not shown: some 18% with an inconclusive outcome. This is one part of the list.
Just a reminder that ties go to f: only normalized growth strictly below 1 counts as t.

molecule	class
CC1(C)C(=O)CC[C@@]2(C)C1C[C@@H](O)[C@@]1(C)C3=CC(=O)O[C@@H](c4ccoc4)[C@]3(C)CCC21 (stereo partly specified)	f
COc1ccc(-c2cc(=O)c3c(O)c(OC)c(OC)cc3o2)cc1O	t

Please find the next molecule below.
-- ask Dear reviewer, please state whether `O=c1c(O)cc([C@H]2Oc3cc(O)cc(O)c3C[C@H]2O)cc2c([C@H]3Oc4cc(O)cc(O)c4C[C@H]3O)cc(O)c(O)c12` has normalized growth strictly beneath 1.
-- reply f

----------
Test: chemical genetic growth profiling, strain panel (AID 1159580);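 further: tested at 20 µM; growth read once vehicle control cultures reached saturation at 30 °C; 1 = growth at the plate median or of vehicle wells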
Details: S. cerevisiae deletion strains, growth OD, locus YJR066W, strain TOR1, hits give low values
Screen size: about 5,500 compounds; about 2,000 (36%) were called active. Roughly 18% stayed inconclusive and do not appear here. Some of the results follow.
reported-property: normalized growth
Note: the reply should be a number with no unit written.

For orientation, consider the following solved cases.
cpd-smiles	normalized growth
COc1ccc(-c2cc(=O)c3c(O)c(OC)c(OC)c(OC)c3o2)cc1OC	0.914
COc1ccc(-c2cc(=O)c3c(OC)c(OC)c(OC)cc3o2)cc1OC	0.99
COc1ccc(-c2cc(=O)c3c(O)c(OC)c(O[C@H]4O[C@H](CO[C@@H]5O[C@@H](C)[C@H](O)[C@@H](O)[C@H]5O)[C@@H](O)[C@H](O)[C@H]4O)cc3o2)cc1	0.906
COc1ccc(-c2cc(=O)c3c(O)cc(OC)cc3o2)cc1	0.874

-- ask Please look up its normalized growth: `COc1ccc(-c2cc(=O)c3c(OC)c(OC)c(OC)c(OC)c3o2)cc1OC`
-- reply 0.976

----------
Experiment: chemical genetic growth profiling, strain panel (AID 1159580);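 further: tested at 20 µM; growth read once vehicle control cultures reached saturation at 30 °C; 1 = growth at the plate median or of vehicle wells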
Details: S. cerevisiae deletion strains, growth OD, locus YER110C
The whole screen tested about 5,500 compounds, of which about 2,000 (36%) were called active. Inconclusive results (about 18%) are left out. Cut-off read from the data, not from the text of the source: active = normalized growth mostly below about 0.91 (no sharp cut-off); inconclusive = no clear call, values can overlap the other calls; inactive = mostly above about 0.92. This is one part of the list.
Give one outcome, nothing more. List: yes (1) (active), no (0) (inactive)

compound	class
CC1(C)C(=O)CC[C@@]2(C)C1C[C@@H](O)[C@@]1(C)C3=CC(=O)O[C@@H](c4ccoc4)[C@]3(C)CCC21 (stereo partly specified)	no (0)

-- ask Entry CC(=O)OCC(=O)[C@@]1(O)CCC2C3C[C@H](C)C4=CC(=O)C=CC4(C)C3[C@@H](O)CC21C (stereo partly specified) : call = ?
-- reply no (0)

-- ask Just curious, what result did CC1(C)C(O)CC(=O)C2(C)C1CC(O)C1(C)C2CCC2(C)C(c3ccoc3)OC(=O)C3OC321 (stereo unspecified) get here?
-- reply no (0)

-- ask Assay result, entry CCCCCC(O)C1C(=O)OC(C)C(O)/C=C/C=C/C=C/C=C/C=C(\C)C(O)CC(O)CC(O)CC(O)CC(O)CC(O)CC1O (stereo unspecified) — outcome?
-- reply no (0)

-- ask Tell me the recorded outcome of this test for C[C@@H]1CC[C@@]23CCC4(C)[C@@](C=CC5[C@@]6(C)CCC(=O)C(C)(C)C6CC[C@]54C)(OC2=O)C3[C@H]1C (stereo partly specified) .
-- reply no (0)

-- ask # lookup: test call for `O=C(O)CN(CCN(CC(=O)O)CC(=O)O)CC(=O)O`
-- reply no (0)

----------
Assay: chemical genetic growth profiling, strain panel (AID 1159580);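 further: tested at 20 µM; growth read once vehicle control cultures reached saturation at 30 °C; 1 = growth at the plate median or of vehicle wells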
Details: S. cerevisiae deletion strains, growth OD, locus YLR418C, strain cdc73, hits give low values
Out of some 5,500 compounds screened, about 2,000 (36%) were called active. About 18% were inconclusive and are not listed. The list shows a part of the results.
Threshold 1. normalized growth below it: Met. normalized growth at it or above: Not met.

Consider the worked cases shown below.
compound	class
C/C=C(\C)C(=O)O[C@@H]1c2c(ccc3ccc(=O)oc23)OC(C)(C)[C@@H]1OC(C)=O	Met
C[C@H]1O[C@@H](O[C@H]2[C@@H](O)C[C@H](O[C@H]3[C@@H](O)C[C@H](O[C@H]4CC[C@]5(C)C6CC[C@]7(C)[C@@H](C8=CC(=O)OC8)CC[C@]7(O)C6CC[C@@H]5C4)O[C@@H]3C)O[C@@H]2C)C[C@H](O)[C@@H]1O (some centres undefined)	Met

-- ask Strictly below 1: is that where normalized growth of CC(=O)O[C@@H]1CC2C(C)(C)CCC[C@]2(C)C2CC[C@]3(C)C(=CC(=O)O[C@H]3c3ccoc3)[C@@]21C (some centres undefined) sits?
-- reply Met

-- ask Input `COc1cc(C)c2c(=O)c3c(O)cc(O)cc3oc2c1` ; condition: normalized growth strictly below 1. Does it hold?
-- reply Met

-- ask API: query returns whether the compound falls strictly under 1 in normalized growth. Query: O=c1c(O)cccc2c(C3Oc4cc(O)cc(O)c4CC3O)cc(O)c(O)c12 (centres undefined)
-- reply Met

-- ask Item `O=C(O)CN(CCN(CC(=O)O)CC(=O)O)CC(=O)O` : normalized growth beneath 1, strictly?
-- reply Met

-- ask In plain terms, does `CC1=CC(=O)C(C(C)C)=CC1=O` come in under 1 for normalized growth?
-- reply Met

-- ask Confirm or reject: normalized growth of CC(=O)N1CCCC1C(=O)O (centres undefined) lies strictly below 1
-- reply Not met

-- ask Field: below-cutoff. Rule: recorded normalized growth strictly less than 1. Subject: `O=c1c(O)cc([C@H]2Oc3cc(O)cc(O)c3C[C@H]2O)cc2c([C@H]3Oc4cc(O)cc(O)c4C[C@H]3O)cc(O)c(O)c12`
-- reply Not met

-- ask Check if normalized growth falls below 1 for `NC(=O)c1ccc([N+](=O)[O-])cc1Cl` .
-- reply Met
